# Test system: NCI-H23 lung
# assay-details: NCI tumour cell line growth inhibition, 48 h
# TGI annotations

OC1CN(OC/C=C/c2ccccc2)CC(O)C1O (stereo unspecified)
> 100 µM
NS(=O)(=O)c1ccc(NNC(=O)c2cccc3c(=O)c4ccccc4[nH]c23)cc1
> 100 µM
CCCCC1Cc2cc(O)ccc2-c2n1c1cc(O)ccc1[n+]2C (stereo unspecified) (tested in a mixture with another compound)
> 76.2 µM
NNC(N)=Nc1cccc2ccccc12
> 100 µM
COc1cc(N=C(N)N=C(N)N)c2ncccc2c1
> 100 µM
CCOC(=O)c1ccc(N=C2SC(=S)N(c3ccc(F)cc3)C2=Nc2ccc(C(=O)OCC)cc2)cc1
44.2 µM

Query :: Which TGI value is on record for `CCOC(=O)CC(=O)ON(C)C(=O)Cc1ccccc1` ?
Result :: > 100 µM

Query :: What measured TGI goes with COC(=O)CCC(NC(=S)N/N=C(\C)c1ccccn1)C(=O)OC (stereo unspecified) ?
Result :: > 100 µM

Query :: Value lookup for TGI; key = C=CCN1CCC(OC(=O)C(O)(/C=C\CC)C2CCCC2)CC1 (stereo unspecified)
Result :: > 100 µM

Query :: // TGI lookup, key: `CCCCCCN(CCCCCC)CCCNc1nccc2ccccc12`
Result :: 3.83 µM

Query :: Fill in the blank: the reported TGI of `c1cncc(CNc2ccccc2-c2nnc(Nc3ccc4c(c3)OCO4)o2)c1` is ____.
Result :: > 100 µM

----------
# Tested on: RXF 393 renal
Response enum: active, inactive

As a guide, the following entries are already answered.
C=C1CC[C@@H]2C(C)(C)[C@@H](O)CC[C@@]2(C)[C@@H]1COc1ccc2ccc(=O)oc2c1
inactive
CN(C)c1cccc(-c2cc(=O)c3ccccc3[nH]2)c1
inactive
Cc1ccc(-n2c3c(c4c(CN5CCCCC5)c(O)ccc42)CCc2ccccc2C3=O)cc1
inactive
CC/C(=N\Nc1nc2ccccc2n1C)c1ccccn1
active
COc1ccc(Nc2c3ccccc3nc3c2c2ccccc2n3C)cc1
inactive
O=C1NC(=NCC(CO)c2ccccc2)S/C1=C\c1ccc2ncccc2c1 (centres undefined)
inactive

Query :: For this compound, state the assay outcome: `N/C(=N\O)c1ncc(-c2ccc(C(F)(F)F)cc2)c(NC2CCCCCC2)n1`
Result :: inactive

Query :: State the result this test recorded for `Cn1cc(-c2csc(-c3c[nH]c4ncccc34)n2)c2cc(Br)cnc21` .
Result :: inactive

Query :: Please let me know the test result on file for `Fc1ccc(-c2nc(-c3nc4ccc(Cl)cc4[nH]3)cc3c2[nH]c2ccccc23)cc1` .
Result :: inactive

----------
Here the recorded TGI is given for each entry.
# System: CCRF-CEM leukemia
# assay-details: NCI tumour cell line growth inhibition, 48 h

C/C(=N\NC(=O)CC(=O)Nc1ccc(C)cc1)c1cc2ccccc2oc1=O
> 100 µM
O=C1C(NS(=O)(=O)c2ccccc2)=C(n2cnc3ccccc32)C(=O)c2ccccc21
> 100 µM
Cn1c(-c2ccccc2)cc(-c2ccc3c(c2)OCO3)c1-c1cccs1
> 100 µM
CC(=O)CC(=O)CCCC(=O)Nc1ccc(Cl)cc1C
> 100 µM
CCN(CC)CCNc1ccc([N+](=O)[O-])c2nc3ccccc3c(N)c12
2.08 µM
CCOP(=O)(CCP(=O)(OCC)OCC)OCC.C[CH2][Sn]([Cl])([Cl])[CH2]C
50.5 µM
CCOc1ccc(Cc2nccc3cc(OCC)c(OCC)cc23)cc1OCC
65.1 µM
O=C(CCc1nnc2s/c(=C\c3ccccc3)c(=O)n12)Nc1cc(Cl)ccc1Cl
> 100 µM
O=c1[nH]c(=S)[nH]c2c1sc(=S)n2-c1ccccc1
> 100 µM
O=C(Oc1cccnc1)c1ccccc1Nc1ccnc(C(F)(F)F)c1
> 100 µM

Query :: Returns the measured TGI for the input compound. Input: `O=C(ON=c1c2ccccc2ccc2ccccc12)c1cc([N+](=O)[O-])cc([N+](=O)[O-])c1`
Result :: 94 µM

Query :: Consider the compound shown here: `Nc1nnc2nc(CC(=O)/C=C/c3ccccc3)c(=O)[nH]n12` What is its recorded TGI?
Result :: > 100 µM

Query :: Which TGI value belongs to `O=C(NC(=O)c1cn(CCN2CCNCC2)c(=O)[nH]c1=O)OCc1ccccc1` ?
Result :: > 100 µM

Query :: Recorded TGI for `O=C(CCCn1c2c(sc3ncccc32)c(=O)n2nnc(-c3ccccc3)c12)NCCc1cnc[nH]1` , please?
Result :: 4.48 µM

Query :: Using the record for CCCCc1ccc(Nc2nc3c(ncn3C3OC(COC(C)=O)C(OC(C)=O)C3OC(C)=O)c(=O)[nH]2)cc1 (centres undefined) , report its TGI.
Result :: 35.1 µM

Query :: Give its TGI value. Item: CC(=O)OC1C=CC2CCN3C(=O)c4cc5c(cc4[C@H]1C23)OCO5 (some centres undefined)
Result :: > 100 µM

Query :: Recorded TGI for `NS(=O)(=O)c1ccc(NNC(=O)c2cccc3c(=O)c4ccccc4[nH]c23)cc1` , please?
Result :: > 100 µM

Query :: Data request, read-out TGI, for `O=C1CCc2c3c(c4c([nH]c5ccccc54)c2CC1)C(=O)NC3=O`
Result :: > 100 µM

Query :: What value of measured TGI is listed for `CC(C)=CC/C=C(/C)[C@H]1CC[C@]2(C)[C@@H]1CC[C@@H]1[C@@]3(C)CCC(=O)NC(C)(C)[C@@H]3CC[C@]12C` ?
Result :: 47.9 µM
